# subject-of-test: 5-hydroxytryptamine receptor 2C (Homo sapiens)
# Sequence (P28335 whole entry): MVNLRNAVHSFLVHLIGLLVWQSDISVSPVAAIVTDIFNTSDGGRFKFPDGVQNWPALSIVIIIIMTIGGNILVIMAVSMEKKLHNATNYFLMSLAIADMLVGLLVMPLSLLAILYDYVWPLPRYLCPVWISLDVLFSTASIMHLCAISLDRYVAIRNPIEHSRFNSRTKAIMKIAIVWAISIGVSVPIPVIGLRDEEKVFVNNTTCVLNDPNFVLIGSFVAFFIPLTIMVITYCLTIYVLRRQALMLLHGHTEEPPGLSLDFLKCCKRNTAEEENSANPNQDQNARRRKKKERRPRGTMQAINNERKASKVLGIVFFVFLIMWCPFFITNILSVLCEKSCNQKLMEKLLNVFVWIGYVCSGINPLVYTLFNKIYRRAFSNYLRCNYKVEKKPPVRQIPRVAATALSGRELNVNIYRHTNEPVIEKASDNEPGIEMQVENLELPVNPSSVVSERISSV
# measurement-description: biochemical
# Assay type: cell-based, CHO-K1
# Description: Displacement of [3H]mesulergine from human recombinant 5-HT2C receptor expressed in CHO-K1 cells
Catalogue of IC50 values
property-measured: IC50 (nM)

- Cc1c(C(=O)NCCCN2CCN(c3cccc(Cl)c3Cl)CC2)nc(-c2ccccc2)n1-c1ccccc1F: 185
- Cc1c(C(=O)NCC(O)CN2CCN(c3cccc(Cl)c3Cl)CC2)nc(-c2ccccc2)n1-c1ccc(F)cc1 (stereo not drawn): 64
- CCCc1nc(C(=O)NCCCN2CCN(c3cccc(Cl)c3C)CC2)c(C)n1-c1ccc(OC)cc1: 204
- COc1ccc(-n2c(-c3ccccc3)nc(C(=O)NCCCN3CCN(c4cccc(Cl)c4Cl)CC3)c2C)cc1: 64
- CCCc1nc(C(=O)NCCCN2CCN(c3cccc(Cl)c3C)CC2)c(C)n1-c1ccccc1: 604
- Cc1c(Cl)cccc1N1CCN(CC(O)CNC(=O)c2nc(C)n(-c3cccc(Cl)c3)c2C)CC1 (stereo not drawn): 556
- COc1ccc(-n2c(-c3ccccc3)nc(C(=O)NCC(O)CN3CCN(c4cccc(Cl)c4C)CC3)c2C)cc1 (stereo not drawn): 526
- CCCc1nc(C(=O)NCCCN2CCN(c3cccc(Cl)c3Cl)CC2)c(C)n1-c1ccccc1OC: 383

Reference source: ChEMBL document CHEMBL1821711
